FYI, the data here is from PubChem BioAssay AID651956.

Experimental Protocol: activation of miR-122 Renilla sensor silencing – cell-based, Huh7 psiCHECK-miR122, Renilla luciferase, cherry-picked, dose response (AID 651956)
Assay Setup: Huh7 psiCHECK-miR122 Renilla luciferase reporter, 48 h; series mostly up to 35 µM
Measured potencies and affinities stand elsewhere. Results filed as inconclusive are left out. Activity calls are given as the source filed them.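 How the source made its calls: active means in every test run, a fitted half-maximal concentration for signal decrease at or below twice the highest tested concentration; inconclusive means runs disagree, flat 30 to 70% decrease, or poor fit; inactive means the rest.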
Metric: outcome

CNC(=O)C[C@H]1CC[C@@H]2[C@@H](COc3ccc(NC(=O)C(C)C)cc3C(=O)N2C)O1: inactive
CN1C(=O)c2cc(NC(=O)c3ccc4c(c3)OCO4)ccc2OC[C@H]2O[C@@H](CC(=O)O)CC[C@@H]21: inactive
CCCNC(=O)Nc1ccc2c(c1)C(=O)N(C)[C@@H]1CC[C@@H](CC(=O)NCC3CCCCC3)O[C@H]1CO2: inactive
Cc1ccc(C(=O)n2nc(-c3ccccc3)nc2NCc2ccco2)cc1: inactive
CN1C(=O)c2cc(NC(=O)c3cccs3)ccc2OC[C@@H]2O[C@@H](CC(=O)N3CCOCC3)CC[C@H]21: inactive
CN1C(=O)c2cc(NC(=O)Cc3ccccc3)ccc2OC[C@H]2O[C@H](CC(=O)O)CC[C@H]21: inactive
COC(=O)C[C@@H]1CC[C@H]2[C@@H](COc3ccc(NC(=O)c4ccc(C(F)(F)F)cc4)cc3C(=O)N2C)O1: inactive

Query :: I would be grateful if you could share the reported outcome for O=C(Nc1ncc(Cc2cccc(C(F)(F)F)c2)s1)c1ccc(-c2cccc([N+](=O)[O-])c2)o1 .
Result :: inactive
